- method-notes: in vivo
- condition-label: mouse, in vivo, ip
measure-name: LD50 (mg/kg)

INSERT INTO measurements (compound, units_of_measure, comparison_symbol, numeric_value) VALUES
  ('CCOC(=O)C1=C(C)NC(C)=C(C(=O)OCC)C1C(=O)NC(CCC(=O)O)C(=O)O (stereo not drawn)', 'mg/kg', '>', 2000),
  ('C=C[C@H]1C[N@@]2CC[C@H]1C[C@@H]2[C@@H](O)c1ccnc2ccc(OC)cc12 [Quinidine, reference compound]', 'mg/kg', '=', 156),
  ('CCN(CC)CCNC(=O)c1ccc(N)cc1 [Novocaine amide, reference compound]', 'mg/kg', '=', 290);
